From: PubChem BioAssay AID1159580

test.protocol: chemical genetic growth profiling, strain panel (AID 1159580);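 further: tested at 20 µM; growth read once vehicle control cultures reached saturation at 30 °C; 1 = growth at the plate median or of vehicle wells; lower values mean less growth of the strain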
condition.notes: S. cerevisiae deletion strains, growth OD, locus YGL253W, strain hxk2, hits give low values
Screen size: about 5,500 compounds; about 2,000 (36%) were called active. About 18% were inconclusive and are not listed. Some of the results follow.
Measured normalized growth, listed per entry.

>  <compound>
Oc1ccc(Cl)cc1Cc1cc(Cl)ccc1O

>  <normalized growth>
0.0817

$$$$
>  <compound>
O=C1CC2OCC=C3CN4CC[C@]56c7ccccc7N1C5[C@H]2[C@H]3CC46 (some centres undefined)

>  <normalized growth>
1.01

$$$$
>  <compound>
O=C1OC2(c3ccc(O)cc3Oc3cc(O)ccc32)c2ccccc21

>  <normalized growth>
1.02

$$$$
>  <compound>
CC(C)NC[C@H](O)COc1cccc2ccccc12

>  <normalized growth>
1

$$$$
>  <compound>
CC[N+](CC)(CC)CCOc1cccc(OCC[N+](CC)(CC)CC)c1OCC[N+](CC)(CC)CC

>  <normalized growth>
1.01

$$$$
>  <compound>
CC(C)NCC(O)COc1cccc2ccccc12 (centres undefined)

>  <normalized growth>
1.02

$$$$
>  <compound>
CC(=O)OCC(OC(C)=O)C(OC(C)=O)C(OC(C)=O)C(OC(C)=O)C(COC(C)=O)OC(C)=O (centres undefined)

>  <normalized growth>
0.984

$$$$
>  <compound>
C#CCCCCCCCCCCCC(O)CC(O)COC(C)=O (centres undefined)

>  <normalized growth>
0.788

$$$$
>  <compound>
Cc1c(S(=O)(=O)O)oc2c1C(=O)C(=O)c1c-2ccc2c1CCCC2(C)C

>  <normalized growth>
0.982

$$$$

---

test.protocol: chemical genetic growth profiling, strain panel (AID 1159580);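 further: tested at 20 µM; growth read once vehicle control cultures reached saturation at 30 °C; 1 = growth at the plate median or of vehicle wells; lower values mean less growth of the strain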
condition.notes: S. cerevisiae deletion strains, growth OD, locus YDL214C, strain PRR2, hits give low values
Among all 5,500 compounds or so, about 2,000 (36%) were called active. Another 18% or so got no clear call; they are omitted. Some of the results follow.
Measured normalized growth, listed per entry.
property.measured: normalized growth

>  <cpd.smiles>
CC1(C)OC(=O)C(=Cc2cccn2-c2ccc(OC(F)(F)F)cc2)C(=O)O1

>  <property.measured>
normalized growth

>  <endpoint.value>
0.899

$$$$
>  <cpd.smiles>
CC1(C)OC(=O)C(=Cc2cccn2-c2ccc(C(F)(F)F)cc2)C(=O)O1

>  <property.measured>
normalized growth

>  <endpoint.value>
0.913

$$$$
>  <cpd.smiles>
ClC1=C(C=Nc2ccc(Cl)cc2)CSc2ccc(Cl)cc21

>  <property.measured>
normalized growth

>  <endpoint.value>
0.896

$$$$
>  <cpd.smiles>
CC(C)(C)c1ccc(C(=O)NNc2c(Cl)cccc2Cl)cc1

>  <property.measured>
normalized growth

>  <endpoint.value>
0.9

$$$$
>  <cpd.smiles>
Cc1cccc(NC(=S)NNC(=O)CSCc2cccc3ccccc23)c1

>  <property.measured>
normalized growth

>  <endpoint.value>
0.904

$$$$
>  <cpd.smiles>
Cc1c(C(=S)Nc2ccccc2)sc2ccccc12

>  <property.measured>
normalized growth

>  <endpoint.value>
0.881

$$$$

---

test.protocol: chemical genetic growth profiling, strain panel (AID 1159580);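 further: tested at 20 µM; growth read once vehicle control cultures reached saturation at 30 °C; 1 = growth at the plate median or of vehicle wells; lower values mean less growth of the strain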
condition.notes: S. cerevisiae deletion strains, growth OD, locus YFR003C, strain YPI1, hits give low values
In all, about 5,500 compounds went through this assay and about 2,000 (36%) were called active. About 18% were inconclusive and are not listed. The list shows a part of the results.
property.measured: normalized growth

>  <cpd.smiles>
CC1(C)OC(=O)C(=Cc2cccn2-c2ccc(OC(F)(F)F)cc2)C(=O)O1

>  <endpoint.value>
0.993 (inactive)

$$$$
>  <cpd.smiles>
O=C(Nc1ccc(Cl)cc1)OCCSc1nc2ccccc2s1

>  <endpoint.value>
0.977 (inactive)

$$$$
>  <cpd.smiles>
Cc1ccc(NS(=O)(=O)c2ccc(-c3csc(C)n3)s2)c(C)c1

>  <endpoint.value>
0.98 (inactive)

$$$$
>  <cpd.smiles>
Cc1ccc(NNC(=O)c2c(C)noc2C)cc1Cl

>  <endpoint.value>
0.983 (inactive)

$$$$
>  <cpd.smiles>
CCc1ccn2cc(Nc3ccccc3Cl)nc2c1

>  <endpoint.value>
0.973 (inactive)

$$$$
